B1: library; a variant is named by its letters at X, in order (parent)
chain: MNIQIGELAKRTACPVVTIRFYEQEGLLPPPGRSRGNFRLYGEEHVERLQFIRHCRSLDMPLSDVRTLLSYRKRPDQDCGEVXMLLDEHIRQVESRIGALLELKHHLVELREACSGARPAQSCGILQXLSXCVCXTRGTTAHXSD

variants of: B1; experiment: sfGFP reporter fluorescence (15 h) (µM FITC); higher = higher leak; conditions: library round: Round 2; ligand: none
MEASUREMENT_NAME: sfGFP reporter fluorescence
One number for each entry.

MUTATION_ID	sfGFP reporter fluorescence
NGDAP S130A T136A	0.0512

Lab note: each variant below needs its sfGFP reporter fluorescence filled in.
1. TGDRW
2. NICDP I125L
3. NGDAL P61N
4. NMDAP L85I
5. NLDDP G124A L129A
6. NIEDP C134E
7. NGDDW R74Q G138A

1: 0.0495; 2: 0.0468; 3: 0.0792; 4: 0.11; 5: 0.0419; 6: 0.194; 7: 0.0503

These entries and their values trace back to the supplement of paper PMC12783771.
